Items are presented alongside their recorded Survivors.
- Test system: S180 ascites
- assayProtocol: Anti-tumor evaluation: % increase in life span (% ILS) and survivors, S180 ascites in female CFW Swiss mice
- Type: in vivo
- assayConditions: dose 320 mg/kg; on day of evaluation

Examples from the recorded data:
N#C[S][Pd][S]C#N.NCCCCN 0 of 5
N#C[S][Pd]1([S]C#N)[NH]CC(O)C[NH]1 0 of 6
N#C[S][Pd]1([S]C#N)[NH]c2ccccc2[NH]1 0 of 4
N#C[S][Pd-2]1([S]C#N)[NH2+]c2cccc3cccc(c23)[NH2+]1 1 of 6
N#C[S][Pd-2]1([S]C#N)[NH2+]CCC[NH2+]1 0 of 4

Problem: Return value of Survivors for input `N#C[S-].N#C[S-].NCCN.[Pd+2]` , no commentary.
Result: 0 of 4
